# credit: patent US20240252641A1

Target: T1, CD70 (UniProt P32970 39-193, limits assumed)
T1 construct: also called CD70 (100 nM)
T1 sequence (looked up): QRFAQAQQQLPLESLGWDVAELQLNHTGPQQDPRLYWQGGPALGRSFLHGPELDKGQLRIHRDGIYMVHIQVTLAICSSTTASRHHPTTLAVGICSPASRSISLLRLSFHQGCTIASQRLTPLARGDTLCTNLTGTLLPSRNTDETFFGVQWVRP
Test: Octet (BLI); mAb binding to CD70 with CD27 (competitor CD27)
Sorting guide: entries reporting CD27:CD70 Interaction Neutralization of mAb Binding beneath 0.06 go in the true (1) pile, the rest go in the false (0) pile.

{"binder": "9A11 (9A11E8) (antibody, V domains shown, IgG in hybridoma supernatant) VH: QVQLVESGGGVVQPGRSLRLSCAASGFTFSNYGMYWVRQAPGKGLEWVAVIWYDGSKKYYGDSVKGRFTISRDNSKNTLYLQMNSLRAEDTAVYYCARDEDTVMASFDYWGQGTLVTVSS VL: DIQLTQSPSFLSASVGDRVTITCRASQDISIYLAWYQQKPGKAPQLLIYAASTLQSGVPSRFSGSGSGTEFTLTISSLQPEDFATYSCQQLNSYPITFGGGTKVEIK", "qualitative label": "false (0)"}
{"binder": "4G7 (4G7E8) (antibody, V domains shown, IgG in hybridoma supernatant; The variable domains exist only inside scFv entries 1213/1214) VH: QVQLVESGGGVVQPGRSLRLSCAASGFTFSSYGLHWVRQAPGKGLDWVAVIWYDGSNKYYVDSVKGRFTISRDNSMNTLFLQMNSLRAEDTAVYYCARDEAAAAGAFDIWGQGTMVTVSS VL: DIQLTQSPSFLSASVGDRVTITCRASQGISSYLAWYQQKPGKAPKLLIYAASTLQSGVPSRFSGSGSGTEFTLTISSLQPEDFATYYCQQLNYYSITFGQGTRLEIK", "qualitative label": "true (1)"}
{"binder": "9A1 (9A1H6) (antibody, V domains shown, IgG in hybridoma supernatant) VH: QVQLVQSGAEVKKPGASVKVSCKASGYSFTGYYMHWVRQAPGQGLEWMGWINPKSGGTSYAQQFQGRVTMTRDTSMSTVYMELTRLRADDTAVYYCARLYYSGWYGDYWGQGTLVTVSS VL: DIQMTQSPSSLSASVGDRVTITCQASQDINNYLNWYQQKPGKVPNLLIYDASNLETGVPSRFSGSGSGTDFTFTISSLQPEDIATYYCQQYNNPPITFGQGTRLEIK", "qualitative label": "true (1)"}
{"binder": "1E3 (1E3D9) (antibody, V domains shown, IgG in hybridoma supernatant) VH: QLQLQESGPGLVKPSETLSLTCTVSGASITSTSYYWNWIRQPPGKGLEWIGRISYSGSTYYNPSLKSRVTISVDTSKNQFSLKLSSVTATDTAVYYCARQIRYNWNPDTFDIWGQGTMVTVSS VL: EIVMTQSPATLSVSPGERATLSCRASQSLNSNLAWYQQKPAQAPRLLIYGASTRATGIPARFSGSGSGTEFTLTISSLQSEDFAVYYCQQYDNWPLTFGGGTKVEIK", "qualitative label": "false (0)"}
{"binder": "15F8 (15F8D8) (antibody, V domains shown, IgG in hybridoma supernatant; also called 15F8D9) VH: EVQLVESGGGVVRPGGSLRLSCAASGFTFDDYGVSWVRQAPGRGLEWVSGINWNGGSTAYADSVKGRFTISRDSAKNSLYLQMDSLRAEDTALYYCAREEGSYYVWYFDIWGRGTLVTVSS VL: DIQMTQSPSSLSASVGDRVTITCRPSQSISNYLNWYQQKPGKAPKVLIYASFILQSGVPSRFGGSGSGTDFTLTISSLQPEDFATYYCQQSYSNPFTFGPGTKVDIK", "qualitative label": "true (1)"}
